- system: T1, SNTG1, Q9NSN8
- T1 sequence (Q9NSN8 52-150, limits assumed, looked up): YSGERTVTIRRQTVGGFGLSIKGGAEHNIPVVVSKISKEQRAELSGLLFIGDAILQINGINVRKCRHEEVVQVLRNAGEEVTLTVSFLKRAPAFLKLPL
- run description: holdup assay
- Design: key: below the threshold = too weak to quantify, mostly under pKd 3.1 to 4
- setup conditions: plain residues with an end cap or a label only (N-terminal biotin on a linker: ado-ado)
measurement label: pKd

| binder | reported value |
| --- | --- |
| TPPAAKKSRI [BAZ1A, Q9NRL2] | below the threshold |
| TLPRKRMSSI [GPRC6A, Q5T6X5] | below the threshold |
| GQEEQVTTRL [TRPC5, Q9UL62] | below the threshold |
| LKVPPEERLI [CRB2, Q5IJ48] | below the threshold |
| SKENVQETQI [LRRC4B, Q9NT99] | 4.94 |
| DDEDRLVIEI [ZNF831, Q5JPB2] | below the threshold |
| YLEPVLSSEL [ATP2A2, P16615;P16615-3] | below the threshold |
| TSSMRGMDAV [RSRC2, Q7L4I2] | below the threshold |
| SAAKVLTSMC [GHRHR, Q02643] | below the threshold |
| KSGKQTMLVV [TRIM29, Q14134] | 3.5 |
